molecular target: full-length human GLP-1R with an N-terminal FLAG tag (human, UniProt P43220 24-463); assay: cell-based or functional assay
Starred links: 1 amine or outer side, 2 acyl side, 3 side chain; linkers in the order of their positions; H or OH if unused. Non-standard residues stand in square brackets, D forms with d. Groups on a side chain read outwards from the residue. No end group written: not given here. *: point of attachment. 2OEGgEgE‑C18 diacid = O=C(O)CCCCCCCCCCCCCCCCC(=O)N[C@@H](CCC(=O)N[C@@H](CCC(=O)NCCOCCOCC(=O)NCCOCCOCC(=O)*)C(=O)O)C(=O)O; C18 diacid = O=C(O)CCCCCCCCCCCCCCCCC(=O)*; C17 diacid = O=C(O)CCCCCCCCCCCCCCCC(=O)*; γGlu = O=C(O)[C@H](CCC(=O)[*:2])N[*:1]; NMeY = CN[C@@H](Cc1ccc(O)cc1)C(=O)O; AEEA = NCCOCCOCC(=O)O; Aib = CC(C)(N)C(=O)O
Each record here notes measured Human GLP1R cAMP EC50, HEK293T.

Binder	Bound type	Human GLP1R cAMP EC50, HEK293T / nM
[NMeY][Aib]EGTFISDYSI[Aib]LDR[Aib]K([AEEA-AEEA-γGlu-γGlu-C18 diacid])Q[Aib]NFVNWLLAQSPSSGAPPPS-NH2 [Compound No. 100]	>	1000
[NMeY][Aib]EGTFISDYSI[Aib]LDR[Aib]AA[Aib]K([AEEA-AEEA-γGlu-γGlu-C18 diacid])FVNWLLAQRPSSGAPPPS-NH2 [Compound No. 106]	=	12
YXEGTFISDYSIXXDSXAQXDFVNWLLAQRG (N-terminus H; Aib at 2,13,17,20; Lys(G5-C18 diacid) at 14; C-terminal OH) [Compound No. 150]	=	13.5
[NMeY][Aib]EGTFISDYSI[Aib]LDR[Aib]AQ[Aib]K([AEEA-γGlu-γGlu-C18 diacid])FVNWLLAQSPSSGAPPPS-NH2 [Compound No. 93]	=	29.5
[NMeY][Aib]EGTFISDYSIALDR[Aib]AQ[Aib]K([2OEGgEgE-C17 diacid])FVNWLLAQR-NH2 [Compound No. 8]	=	41.4
[NMeY][Aib]EGTFISDYSIAKDR[Aib]AQ[Aib]NFVNWLLAQK-NH2 (not fully specified (residue 14)) [Compound No. 6]	=	83.2
[NMeY][Aib]EGTFISDYSIALDRIHQ[Aib]NFVNWLLAQK([AEEA-AEEA-γGlu-C18 diacid])PSSGAPPPS-NH2 [Compound No. 2]	=	525
[NMeY][Aib]EGTFISDYSIALDR[Aib]AQ[Aib]NFVNWLLAK(2OEGgEgE‑C18 diacid)SPSSGAPPPS-NH2 [Compound No. 59]	>	1000
[NMeY][Aib]EGTFISDYSIALDR[Aib]K([AEEA-AEEA-γGlu-γGlu-C17 diacid])Q[Aib]NFVNWLLAQSGGGGS-NH2 [Compound No. 31]	=	170
YXEGTFISDYSIXXDRXAQXDFVNWLLAQSPSSGAPPPS (N-methyl Tyr 1; Aib at 2,13,17,20; Lys(G5-C18 diacid) at 14; C-terminal OH) [Compound No. 47]	=	148
H-Y[Aib]EGTFISDYSIALDKIAQ[Aib]K([AEEA-AEEA-γGlu-γGlu-C17 diacid])FVEWLLAQRG-OH [Compound No. 132]	=	66.1
YXEGTFISDYSIAXDRXAQXNFVNWLLAQRPSSGAPPPS (N-methyl Tyr 1; Aib at 2,17,20; Lys(G5-C18 diacid) at 14; C-terminal OH) [Compound No. 44]	=	10.7
[NMeY][Aib]EGTFISDYSI[Aib]LDR[Aib]AQ[Aib]K([2OEGgEgE-C18 diacid])FVNWLLAQKG-OH [Compound No. 66]	=	32.4
[NMeY][Aib]EGTFISDYSIAK([G4gE-C18 diacid])DR[Aib]AQ[Aib]DFVNWLLAQKG-OH [Compound No. 80]	=	115
[NMeY][Aib]EGTFISDYSI[Aib]LDR[Aib]K([2OEGgEgE-C18 diacid])Q[Aib]DFVNWLLAQSPG-OH [Compound No. 87]	>	1000
[NMeY][Aib]EGTFISDYSIALDR[Aib]AQ[Aib]K([AEEA-AEEA-γGlu-γGlu-C18 diacid])FVNWLLAQSPSSGAPPPS-NH2 [Compound No. 97]	=	52.5
YXEGTFISDYSIXXDSAAQXDFVNWLLAQRG (N-terminus H; Aib at 2,13,20; Lys(G5-C18 diacid) at 14; C-terminal OH) [Compound No. 151]	=	5.01
YXEGTFISDYSIAXDRXAQXDFVNWLLAQSPG (N-methyl Tyr 1; Aib at 2,17,20; Lys(G5-C20 diacid) at 14; C-terminal OH) [Compound No. 111]	=	14.1
YXEGTFISDYSIALDRXAQXDFVEWLLAQRG (N-methyl Tyr 1; Aib at 2,20; Lys(G5-C18 diacid) at 17; C-terminal OH) [Compound No. 115]	=	40.7
[NMeY][Aib]EGTFISDYSIALDR[Aib]K([AEEA-AEEA-γGlu-C17 diacid])Q[Aib]DFVNWLLAQRPSSGAPPPS-NH2 [Compound No. 25]	=	145

Reference for the values: patent US20230143604A1
